Give measured z-score for each item. Keep answers brief.
Assay: growth effects on S. cerevisiae YJM789 – YJM789 clinical isolate, OD600, 24 h, basal, primary screen (AID 1089);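 note: growth of clinical yeast isolate S. cerevisiae YJM 789 seeded 1000 cells per well; test concentration not given here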
Conditions: higher = more signal, called active from +8 up or from −8 down
Form field (numeric): enter value without unit.

# z-score of C=C(COC)C(=O)CC[C@H](OC(=O)c1ccccc1-c1ccccc1C(=O)O)c1ccc(CO)o1 = -1.91

Per the record, CCOC(=O)C1=CC[C@@H](c2ccc(N(CC)CC)cc2)N(S(=O)(=O)c2ccc(C)cc2)[C@H]1c1ccc([N+](=O)[O-])cc1 has z-score of -0.673

According to the records, this compound CCOC(=O)C1=CC[C@@H](c2ccccc2)N(S(=O)(=O)c2ccc(C)cc2)[C@H]1C=C(C)C displays z-score of 0.465

Lab note: measured z-score of CC(C)C[C@@H]1NC(=O)[C@@H]2C[C@H](C(=O)NCc3ccc(F)cc3)[C@H](c3ccc(O)cc3)N2C1=O was -0.472

The compound listed as COc1ccc(C(=O)Nc2ccc(CN3C(=O)[C@]4(O[C@H](CCn5cc([C@H](O)c6ccccc6)nn5)[C@@H]([Si](C)(C)c5ccc(OC)cc5)[C@@H]4C)c4ccccc43)cc2)cc1 shows z-score equal to -0.0933

Briefly, z-score measured for COC(=O)[C@]1(Cc2ccccc2CN=[N+]=[N-])N=C(c2ccc(OCCCO)cc2)O[C@@H]1c1ccccc1CN=[N+]=[N-] : -0.456

Quick note, z-score for CN1C(=O)C2C=CC(C(O)C3CCCCC3)N(N(c3ccccc3)c3ccccc3)C2C1=O (configuration not stated) landed at 0.345

###

Test: compound effects on lung adenocarcinoma cell viability – A549, calcein-AM fluorescence, 48 h, basal, profiling panel (AID 1162); note: test concentration not given here
Settings: higher = more signal
Quick rule: z-score of at least 0.2 means 1 (yes), below that means 0 (no).

Q) Determine whether this compound has z-score no lower than 0.2: C[C@]12C(=O)N(CCCCCO)[C@@H]3C(=O)N(c4ccc(Cl)cc4)CC=CC31O[C@@H]1/C=C\CCCOC(=O)C12 (some centres not stated)
A) 0 (no)

Q) Is z-score at least 0.2? Consider C=CC[C@@]1(C(=O)NCCN2CCOCC2)N=C(c2ccc(OCCCO)cc2)O[C@@H]1c1ccccc1
A) 0 (no)

Q) Dear colleague, could you confirm whether CCCCCCC#C[Si](O[C@H](c1ccccc1)c1cn(Cc2cccc(Cl)c2)nn1)(C(C)C)C(C)C has z-score at or above 0.2?
A) 1 (yes)

Q) Does the reported z-score for COCC(=C=CC[C@@H](O)c1ccccc1OCCO)C[C@@H](O)COCc1ccccc1 fall at or above the 0.2 mark?
A) 1 (yes)

Q) Please tell me: is the compound C[N+](C)(C)CCCC[C@@H]1NC(=O)[C@@H]2C[C@H](C(=O)O)[C@H](c3cccc(OCCO)c3)N2C1=O at or over 0.2 in terms of z-score?
A) 1 (yes)

Q) Check if z-score >= 0.2 (inclusive). Item: Cc1ccc(S[C@]2(C(=O)O)CC(=O)N(Cc3ccccc3C(F)(F)F)[C@@H]2c2ccc(CO)cc2)cc1
A) 1 (yes)

Q) Tell me whether z-score is at least 0.2 here: COC(=O)[C@@]1(Cc2ccc(OC)cc2)[C@H]2c3cc(C(=O)N(C)C)n(Cc4cc(C)n(C)n4)c3C[C@H]2CN1C(=O)c1ccccc1
A) 0 (no)

Q) Hello, I need to know if CCOC(=O)C[C@H]1[C@H](OC(=O)c2cc3ccccc3oc2=O)[C@@H](NC(=O)c2ccc3ccccc3n2)c2cc(OCCCO)ccc2N1C(=O)c1ccc2ccccc2n1 has measured z-score not below 0.2. Thanks!
A) 1 (yes)

Q) Can O=C(CS)NCCCCCNC(=O)[C@@H]1C[C@@H]2C(=O)N3CCC[C@H]3C(=O)N2[C@@H]1c1ccc(O)cc1 be said to have z-score at or above 0.2?
A) 1 (yes)

Q) Is it the case that COc1ccc([Si](C)(C)[C@@H]2[C@@H](CC(=O)N(CCO)Cc3ccccc3)O[C@]3(C(=O)N(C)c4c(Br)cc(C)cc43)[C@H]2C)cc1 has z-score reaching or exceeding 0.2?
A) 0 (no)

Q) Is reported z-score greater than or equal to 0.2 here: C[C@@]1([C@@H](NC(=O)c2cccs2)c2ccc(-c3ccccc3)cc2)C[C@H]1C1CCCCC1
A) 0 (no)

Q) Quick check: does C=CC[C@]1(C(=O)NCC(O)CO)N=C(c2ccc(OCCCO)cc2)O[C@H]1c1ccccc1N=[N+]=[N-] (some centres not stated) have z-score greater than or equal to 0.2?
A) 0 (no)

Q) Identify whether the reported z-score of the following compound is 0.2 or greater: COCC(=C=CC[C@@H](O)c1ccccc1OCCO)C[C@@H](O)c1ccccn1
A) 0 (no)

Q) Threshold query (z-score >= 0.2) on C=CCOC(=O)[C@@H]1[C@H]2C(=O)O[C@H](c3ccccc3)[C@H](c3ccccc3)N2[C@H](c2ccc(OCCOC(=O)[C@H]3C[C@H]4C(=O)N[C@@H](Cc5ccccc5)C(=O)N4[C@H]3c3cccc(OCCO)c3)cc2)[C@@]12C(=O)Nc1ccc(I)cc12
A) 0 (no)

Q) Textbook exercise: given the entry O=C(N1CCOCC1)[C@@]1(CCS(=O)(=O)c2ccccc2)COC(c2ccc(OCCCO)cc2)=N1 , state whether its z-score is greater than or equal to 0.2.
A) 1 (yes)

Q) Determine whether measured z-score meets or exceeds 0.2 for C=C(C(=O)CC[C@H](OC(=O)c1cccnc1)c1ccc(OCCO)cc1)C(C)C
A) 0 (no)

Q) Answer whether z-score of Cc1ccc(S[C@]2(C(=O)NCCN3CCOCC3)CC(=O)N(C3Cc4ccccc4C3)[C@@H]2c2ccc(CO)cc2)cc1 is greater than or equal to 0.2.
A) 0 (no)

Q) I'd appreciate it if you could say whether COC(=O)[C@@]1(Cc2ccc(OC)cc2)[C@H]2c3cc(C(=O)N(C)C)n(CCF)c3C[C@H]2CN1C(=O)c1ccccc1 has z-score at least equal to 0.2.
A) 0 (no)

Q) In plain terms: is recorded z-score at least 0.2 for COC(=O)[C@@]1(Cc2ccc(F)cc2)[C@H]2c3cc(C(=O)N(C)C)n(CCSCCO)c3C[C@H]2CN1C(=O)c1ccccc1 ?
A) 0 (no)

Q) Exam item: decide whether the reported z-score for COc1ccc(C#Cc2ccc3c(c2)[C@]2(C(=O)N3)[C@H](c3ccc(OCCO)cc3)N3[C@H](c4ccccc4)[C@H](c4ccccc4)OC(=O)[C@H]3[C@@H]2C(=O)N2CCN(c3ncccn3)CC2)cc1 is at least 0.2.
A) 0 (no)

Q) Given C[N+](C)(C)CCCC[C@@H]1NC(=O)[C@H]2C[C@@H](C(=O)NCCCCCCN)[C@@H](c3cccc(OCCO)c3)N2C1=O , state whether its z-score is at least 0.2.
A) 0 (no)

Q) I'd appreciate it if you could say whether O=C1NC(=O)C2C1C=CC(C(O)c1ccc3c(c1)OCO3)N2Nc1ccc(Cl)cc1Cl (configuration not stated) has z-score at least equal to 0.2.
A) 0 (no)

Q) Test whether the compound CCCCC(O)C1C=CC2C(=O)N(Cc3ccccc3)C(=O)C2N1n1cnnc1 (configuration not stated) records z-score of 0.2 or higher.
A) 0 (no)

Q) Given CCCNC(=O)[C@@H]1c2ccccc2C(=O)N(CC23CC4CC(CC(C4)C2)C3)[C@H]1c1ccc(CO)cc1 , state whether its z-score is at least 0.2.
A) 0 (no)

Q) Item C=CCC(OC(C)=O)[C@@H]1[C@@H](N(Cc2ccc(-c3cccc(C(F)(F)F)c3)o2)C(=O)c2cccc3ccccc23)c2cc(OCCCO)ccc2N1C(=O)c1ccc(-c2ccccc2)cc1 (some centres not stated) with z-score of 0.2 or above?
A) 1 (yes)

Q) Confirm if z-score reported for the compound O=C1O[C@H](c2ccccc2)[C@H](c2ccccc2)N2[C@H]1[C@@H](C(=O)N1CCN(c3ncccn3)CC1)[C@]1(C(=O)Nc3ccc(C#CCCO)cc31)[C@H]2c1ccccc1OCCO is 0.2 or above.
A) 1 (yes)

Q) State whether the measured z-score reaches 0.2, counting equality as reaching it, for COCCOC(=O)N1C(=O)[C@@]2(c3cc(C#CC4(O)CCCCCC4)ccc31)[C@H](C(=O)N1CCN(c3ncccn3)CC1)[C@H]1C(=O)O[C@H](c3ccccc3)[C@H](c3ccccc3)N1[C@@H]2c1ccc(O)cc1
A) 1 (yes)

###

Assay: COS7 lysate on small-molecule microarray, probe aHis, 635 nm (AID 1123);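 note: z-score combines 667nm fluorescence intensity with signal-to-noise per printed compound spot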
Conditions: COS7 cell lysate, fluorescence, higher = more signal
Values of composite z-score greater than or equal to 2 map to TRUE; values below map to FALSE.

Q) Dear colleague, could you confirm whether CC(C)[Si](C#C[Si](C(C)C)(C(C)C)C(C)C)(O[C@H](C)c1cn(Cc2cccc(Cl)c2)nn1)C(C)C has composite z-score at or above 2?
A) FALSE

Q) Please indicate if the recorded composite z-score for CN(C)CCCNC(=O)[C@@]1(Cc2ccccc2I)c2ccccc2C(=O)N(Cc2ccccc2Cl)[C@H]1c1ccc(CO)cc1 meets or exceeds 2.
A) FALSE

Q) Given COCCOC(=O)N1C(=O)[C@@]2(c3cc(C#CC4(O)CCCCCC4)ccc31)[C@H](C(=O)N1CCN(c3ncccn3)CC1)[C@H]1C(=O)O[C@H](c3ccccc3)[C@H](c3ccccc3)N1[C@@H]2c1ccc(O)cc1 , state whether its composite z-score is at least 2.
A) FALSE

Q) Exam item: decide whether the reported composite z-score for C[C@]12C(=O)N(CCCCCO)[C@@H]3C(=O)N(c4ccc(Cl)cc4)CC=CC31O[C@@H]1/C=C\CCCOC(=O)C12 (stereo partly drawn) is at least 2.
A) FALSE

Q) Could you verify whether the entry O=C1CSC(c2cccc([N+](=O)[O-])c2)N1c1ccccc1 (stereo not drawn) shows composite z-score of no less than 2?
A) FALSE

Q) Is composite z-score for COCCOC(=O)N1C(=O)[C@@]2(c3cc(C#CCCO)ccc31)[C@H](c1ccc(OCCO)cc1)N1[C@H](c3ccccc3)[C@H](c3ccccc3)OC(=O)[C@H]1[C@@H]2C(=O)N1CCc2cc(OC)c(OC)cc2C1 at or above 2?
A) FALSE

Q) Is composite z-score at least 2? Consider Cc1ccc(S[C@]2(C(=O)NCC(C)C)CC(=O)N(C3CCCCC3)[C@@H]2c2ccc(CO)cc2I)cc1
A) FALSE

Q) Could you please find out whether COC(=O)C(CC#Cc1ccc2c(c1)[C@]1(C(=O)N2)[C@H](C(=O)N2CCc3cc(OC)c(OC)cc3C2)[C@H]2C(=O)O[C@H](c3ccccc3)[C@H](c3ccccc3)N2[C@@H]1c1ccc(OCCO)cc1)C(=O)OC has composite z-score that meets 2 or exceeds it?
A) TRUE

Q) Check this compound for composite z-score at or above 2: CN(C)C(=O)[C@@]1(CCC(=O)OC(C)(C)C)COC(c2ccc(OCCCO)cc2)=N1
A) TRUE

Q) Could you tell me if the measured composite z-score of COC(=O)[C@@]1(Cc2ccccc2)[C@H]2c3cc(C(=O)N4CCCC4)n(Cc4ccccc4)c3C[C@H]2CN1C(=O)c1ccccc1 reaches 2 or more?
A) TRUE

Q) Decide: is the reported value of composite z-score for CC(C)C[C@H]1NC(=O)[C@H](C)NC(=O)[C@@]23C(=O)N[C@@H](Cc4ccccc4)C2[C@H](C)[C@@]2(C)O[C@H]2C3/C=C/C/C=C\CNC1=O (stereo partly drawn) equal to or greater than 2?
A) FALSE

Q) Is it the case that [N-]=[N+]=NCc1ccccc1C[C@]1(C(=O)NCCN2CCOCC2)COC(c2ccc(OCCCO)cc2)=N1 has composite z-score reaching or exceeding 2?
A) TRUE
